src = ChEMBL document CHEMBL5104131

Test system: Staphylococcus aureus
RUN_DESCRIPTION: Antibacterial activity against Staphylococcus aureus ATCC 25923 assessed as bacterial growth inhibition by serial dilution method
Format: functional
MEASURED_QUANTITY: log10 MIC (log10 of the value in µg/mL)
Scale: decimal log of MIC, MIC in µg/mL.

Ask | Any idea what log10 MIC came out for "O=C(O)c1cn(C2CC2)c2cc(N3CCN(c4ncc(F)cn4)CC3)c(F)cc2c1=O" on Staphylococcus aureus?
Reply | 0.90

Ask | Recall the recorded log10 MIC for "O=C(O)c1cn(C2CC2)c2cc(N3CCN(c4ncc(Br)cn4)CC3)c(F)cc2c1=O" with Staphylococcus aureus and state it.
Reply | 1.20

Ask | Form field - read-out: log10 MIC; system: Staphylococcus aureus; submitted item: "O=C(O)c1cn(C2CC2)c2cc(N3CCN(c4nccc(C(F)(F)F)n4)CC3)c(F)cc2c1=O"
Reply | 2.11

Ask | Return log10 MIC measured with Staphylococcus aureus given this compound: "CCn1cc(C(=O)O)c(=O)c2cc(F)c(N3CCN(c4ncccn4)CC3)cc21"
Reply | 0.90

Ask | Find log10 MIC (Staphylococcus aureus) for the entry "CCn1cc(C(=O)O)c(=O)c2cc(F)c(N3CCN(c4ncc(OC)cn4)CC3)cc21"
Reply | 1.51

Ask | // lookup log10 MIC | system=Staphylococcus aureus | key= "CCc1cnc(N2CCN(c3cc4c(cc3F)c(=O)c(C(=O)O)cn4C3CC3)CC2)nc1"
Reply | 0.90

Ask | Request: log10 MIC, test system Staphylococcus aureus, entry "Cc1ccnc(N2CCN(c3cc4c(cc3F)c(=O)c(C(=O)O)cn4C3CC3)CC2)n1"
Reply | 0.60

Ask | Give recorded log10 MIC with Staphylococcus aureus for the following compound: O=C(O)c1cn(C2CC2)c2cc(N3CCNCC3)c(F)cc2c1=O [CIPROFLOXACIN]
Reply | 0.30

Let us move to another entry and its log10 MIC.
Ask | Staphylococcus aureus / log10 MIC / "O=C(O)c1cn(C2CC2)c2cc(N3CCN(c4ncccn4)CC3)c(F)cc2c1=O" : value?
Reply | 1.81
